assay: Plasma pharmacokinetics; format: in vivo, human; conditions: human, plasma, oral, 10 mg, AUC0-24h, GeoMean(%CVb), single dose, C1D1, continuous arm (n = 5)
RESULT TYPE: AUC(0-t)
Field: value (include unit after the number)

Prompt line: Identify measured AUC(0-t) corresponding to CNC(=O)c1cccc2cc(Oc3ccnc4cc(OCC5(N)CC5)c(OC)cc34)ccc12
Response line: 2410 ng·h/mL

====

assay: Plasma pharmacokinetics; format: in vivo, human; details: human, plasma, 10 mg, λz, Mean ± SD, multiple dose, C1D15, intermittent arm (n=4)
RESULT TYPE: k el (s⁻¹)
// return numeric value only (unit: s⁻¹, not printed)

Prompt line: Identify measured k el corresponding to CNC(=O)c1cccc2cc(Oc3ccnc4cc(OCC5(N)CC5)c(OC)cc34)ccc12 [Lucitanib]
Response line: 5.56e-06

====

experiment: Plasma pharmacokinetics; assay type: in vivo, human; conditions: human, plasma, oral, 10 mg, C max, GeoMean(%CVb), single dose, C1D1, continuous arm (n = 5)
RESULT TYPE: Cmax
Field: value (include unit after the number)

Prompt line: Identify measured Cmax corresponding to CNC(=O)c1cccc2cc(Oc3ccnc4cc(OCC5(N)CC5)c(OC)cc34)ccc12 [Lucitanib]
Response line: 261 ng/mL

====

assay: Plasma pharmacokinetics; format: in vivo, human; details: human, plasma, 10 mg, t 1/2, GeoMean(%CVb), single dose, C1D1, continuous arm (n = 5)
RESULT TYPE: half-life (h)
// return numeric value only (unit: h, not printed)

Prompt line: Identify measured half-life corresponding to CNC(=O)c1cccc2cc(Oc3ccnc4cc(OCC5(N)CC5)c(OC)cc34)ccc12
Response line: 21.9

====

experiment: Plasma pharmacokinetics; type: in vivo, human; settings: human, plasma, oral, 10 mg, C max, GeoMean(%CVb), single dose, C1D1, intermittent arm (n = 4)
RESULT TYPE: Cmax
Field: value (include unit after the number)

Prompt line: Identify measured Cmax corresponding to CNC(=O)c1cccc2cc(Oc3ccnc4cc(OCC5(N)CC5)c(OC)cc34)ccc12
Response line: 228 ng/mL

====

test: Plasma pharmacokinetics; type: in vivo, human; settings: human, plasma, 10 mg, AUCss, GeoMean(%CVb), multiple dose, C1D15, intermittent arm (n=4)
RESULT TYPE: AUC (ng·h/mL)
// return numeric value only (unit: ng·h/mL, not printed)

Prompt line: Identify measured AUC corresponding to CNC(=O)c1cccc2cc(Oc3ccnc4cc(OCC5(N)CC5)c(OC)cc34)ccc12
Response line: 9160

====

assay: Plasma pharmacokinetics; assay type: in vivo, human; settings: human, plasma, oral, 10 mg, MRT, Mean ± SD, single dose, C1D1, continuous arm (n = 5)
RESULT TYPE: MRT

Prompt line: Identify measured MRT corresponding to CNC(=O)c1cccc2cc(Oc3ccnc4cc(OCC5(N)CC5)c(OC)cc34)ccc12 [Lucitanib]
Response line: 34.2 h

====

test: Plasma pharmacokinetics; format: in vivo, human; settings: human, plasma, oral, 10 mg, AUC0-t, Mean ± SD, single dose, C1D1, intermittent arm (n = 4)
RESULT TYPE: AUC(0-t) (ng·h/mL)
// return numeric value only (unit: ng·h/mL, not printed)

Prompt line: Identify measured AUC(0-t) corresponding to CNC(=O)c1cccc2cc(Oc3ccnc4cc(OCC5(N)CC5)c(OC)cc34)ccc12 [Lucitanib]
Response line: 3030

Sourced from paper PMC9177108
